Biological target: human active recombinant p38α-6His tagged (Homo sapiens, UniProt Q16539)
Sequence (Q16539 whole entry): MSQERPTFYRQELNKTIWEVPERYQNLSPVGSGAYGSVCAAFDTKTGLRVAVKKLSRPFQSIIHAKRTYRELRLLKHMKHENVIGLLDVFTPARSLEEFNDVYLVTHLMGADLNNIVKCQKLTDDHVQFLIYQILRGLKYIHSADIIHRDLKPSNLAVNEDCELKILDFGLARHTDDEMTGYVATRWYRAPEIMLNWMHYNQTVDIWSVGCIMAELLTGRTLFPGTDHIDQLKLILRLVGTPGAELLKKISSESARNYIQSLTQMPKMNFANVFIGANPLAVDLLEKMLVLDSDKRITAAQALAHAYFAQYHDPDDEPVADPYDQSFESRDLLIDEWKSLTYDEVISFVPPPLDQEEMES
Experiment: P38 Alpha Enzyme Assay (AlphaScreen, biotinylated-ATF2 substrate);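 further: 0.5 nM final p38α, reaction started with ATP and run 45 min at 37 °C, phospho-ATF2 read by antibody-based AlphaScreen, background wells quenched with EDTA before ATP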
Assay type: biochemical
Conditions: p38 alpha enzyme inhibition; means of replicate determinations; 4 h pre-incubation at 37° C.; SD of assay 0.2-0.3 log units
Attribute: pIC50
Lab note: record just the number, no unit beside it.

[[record]]
chemical_smiles = "Cc1ccc(C(=O)NC2CC2)cc1-n1ccnc(NC2(c3ccccc3OCCN3CCn4ccnc4C3)CC2)c1=O"
recorded_endpoint = "pIC50"
value_observed = 9.1


pIC50 reading for CNCCOc1ccccc1C1(Nc2nccn(-c3cc(C(=O)NC4CC4)ccc3C)c2=O)CCC1 : 10

Measured pIC50, Cc1cc(C)cc(CNc2nccn(-c3cc(C(=O)NC4CC4)ccc3C)c2=O)c1 : 7.7

compound Cc1ccc(C(=O)NC2CC2)cc1-n1ccnc(NC[C@H](O)c2ccccc2)c1=O , pIC50 observed: 6.5
